System: Human hepatocellular carcinoma cell line (HepG2)
Assay: MTT cytotoxicity assay, HepG2
Assay type: cell-based
Conditions: MTT assay
value-kind: cytotoxic activity, class in words, HepG2

• CCN1CCN(CCNC(=O)Nc2nc(-c3cc(OC)c(OC)c(OC)c3)cs2)CC1 [Compound 13a] = strong (11–20 (strong))
• CCCCNCC(=O)Nc1nc(-c2cc(OC)c(OC)c(OC)c2)cs1 [Compound 5b] = strong (11–20 (strong))
• COc1cc(-c2csc(NC(=O)CN3CCOCC3)n2)cc(OC)c1OC [Compound 6e] = strong (11–20 (strong))

* * *

Measured IC50 by item
Tested on: Human hepatocellular carcinoma cell line (HepG2)
Assay: MTT cytotoxicity assay, HepG2
Assay type: cell-based
Details: Homo sapiens, HepG2, 24 h, read-out: IC50 (μM) HePG2
value-kind: IC50 (µM)

* COc1cc(-c2csc(NC(=O)CN/N=C3\C(=O)Nc4ccc(Cl)cc43)n2)cc(OC)c1OC [Compound 9a] | 7.32
* CCN1CCN(CCNC(=O)Nc2nc(-c3cc(OC)c(OC)c(OC)c3)cs2)CC1 [Compound 13a] | 14.2
* COc1cc(-c2csc(Nc3csc(N)n3)n2)cc(OC)c1OC [Compound 10] | 49.6
* COc1cc(-c2csc(NC(=O)NCCN3CCOCC3)n2)cc(OC)c1OC [Compound 13b] | 25.7
* COc1ccc(/C=C\c2cc(OC)c(OC)c(OC)c2)cc1O [CA-4, combretastatin A-4, reference compound] | 4.5
* COc1cc(-c2csc(NC(=O)CNc3ccc(Br)cc3)n2)cc(OC)c1OC [Compound 7b] | 34.2
* COc1cc(-c2csc(NC(=O)CN/N=C3\C(=O)Nc4ccc(C)cc43)n2)cc(OC)c1OC [Compound 9b] | 8.04
